- System: RPMI-8226
- methodSummary: cells
- experimentalContext: Homo sapiens, RPMI-8226, 48 h
Rule: GI50 below 2000 nM gives yes, anything at or above gives no.

compound: Cc1ccc(C2CC(c3ccc(Nc4nc(NCCO)nc(Nc5ccc(Cl)cc5)n4)cc3)=Nc3c(N)nc(N)nc3N2)cc1 (stereo not shown) [33b]
assignedLabel: yes

input: Determine whether this compound shows GI50 lower than 2000 nM (ties excluded): COc1cc(/C=C/C(=O)c2cc(OC)c(OC)c(OC)c2)ccc1Oc1nc(NCCO)nc(N2CCOCC2)n1 [20d]
output: yes

input: Then this compound: Nc1nc(N)c2c(n1)NC(c1ccccc1)CC(c1ccc(Nc3nc(NCCO)nc(Nc4ccc(Cl)cc4)n3)cc1)=N2 (stereo not shown) [33a]
output: yes

input: Quick one: CN(C)c1nc(NCCNS(=O)(=O)c2ccc(C3=Nc4c(N)nc(N)nc4NC(c4ccc(F)cc4)C3)cc2)nc(Nc2ccc(F)cc2)n1 (stereo not shown) [31f]
output: no

input: Follow-up item: CN(C)c1nc(NCCNS(=O)(=O)c2ccc(C(=O)/C=C/c3ccc(F)cc3)cc2)nc(Nc2ccc(F)cc2)n1 [24f]
output: no

input: Ok, now CN(C)c1nc(NCCNS(=O)(=O)c2ccc(C3=Nc4c(N)nc(N)nc4NC(c4ccc(Cl)cc4)C3)cc2)nc(Nc2ccc(F)cc2)n1 (stereo not shown) [31e]
output: no

input: Check CN(C)c1nc(NCCNS(=O)(=O)c2ccc(C(=O)/C=C/c3ccc(Cl)cc3)cc2)nc(N2CCOCC2)n1 [23e] too.
output: no
